Entries annotated with measured IC50
target: GABA-A receptor; anion channel; assay: Non-competitive displacement of [35S]TBPS from picrotoxin binding site found in heterogeneous Gamma-aminobutyric acid A receptor in rat brain membranes.
Enter your answer as a number in nM; do not include the unit.

Known IC50 results, listed for orientation:
{"compound": "C[C@]12CC[C@@H](O)C[C@H]1CC[C@H]1[C@@H]3CCC4CC(=O)CC[C@@]43CC[C@@H]12 (some centres undefined)", "assayed_target": "GABA-A receptor; anion channel", "value": 3230}
{"compound": "C[C@]12CC[C@@H](O)C[C@H]1CC[C@@H]1[C@@H]2CC[C@]23C(=O)CCCC2CC[C@@H]13 (some centres undefined)", "assayed_target": "GABA-A receptor; anion channel", "value": 329}
{"compound": "C[C@]12CC[C@@H](O)C[C@H]1CC[C@H]1[C@@H]3CCC4CCC(=O)C[C@@]43CC[C@@H]12 (some centres undefined)", "assayed_target": "GABA-A receptor; anion channel", "value": 899}
{"compound": "C[C@]12CC[C@@H](O)C[C@@H]1CC[C@@H]1[C@@H]2CC[C@]23C(=O)C=CC[C@H]2CC[C@@H]13", "assayed_target": "GABA-A receptor; anion channel", "value": 197}

// map C[C@]12CC[C@@H](O)C[C@@H]1CC[C@H]1[C@@H]3CCC4CC(=O)CC[C@@]43CC[C@@H]12 (some centres undefined) to recorded IC50 (system: GABA-A receptor; anion channel) 1440

// map C[C@]12CC[C@@H](O)C[C@H]1CC[C@@H]1[C@@H]2CC[C@]23C=CC(=O)C[C@H]2CC[C@@H]13 to recorded IC50 (system: GABA-A receptor; anion channel) 4750

// map C[C@]12CC[C@@H](O)C[C@@H]1CC[C@H]1[C@@H]3CCC4C(=O)CCC[C@@]43CC[C@@H]12 (some centres undefined) to recorded IC50 (system: GABA-A receptor; anion channel) 514

// map C[C@]12CC[C@@H](O)C[C@@H]1CC[C@@H]1[C@@H]2CC[C@]23C=CC(=O)C[C@H]2CC[C@@H]13 to recorded IC50 (system: GABA-A receptor; anion channel) 1260

// map C[C@]12CC[C@@H](O)C[C@H]1CC[C@H]1[C@@H]3CCC4C(=O)CCC[C@@]43CC[C@@H]12 (some centres undefined) to recorded IC50 (system: GABA-A receptor; anion channel) 1780

====

assay: Hill coefficient for displacement of [35S]TBPS.; format: functional
Field: label. Allowed values: true (1) (nHill < 1) or false (0) (nHill >= 1).

{"compound": "C[C@]12CC[C@@H](O)C[C@H]1CC[C@@H]1[C@@H]2CC[C@]23C(=O)CCCC2CC[C@@H]13 (stereo partly specified)", "group": "true (1)"}
{"compound": "C[C@]12CC[C@@H](O)C[C@@H]1CC[C@@H]1[C@@H]2CC[C@]23C(=O)C=CC[C@H]2CC[C@@H]13", "group": "false (0)"}
{"compound": "CC(=O)[C@H]1CC[C@H]2[C@@H]3CC[C@@H]4C[C@H](O)CC[C@]4(C)[C@H]3CC[C@]12C", "group": "true (1)"}

Quick check: does CC(=O)[C@H]1CC[C@H]2[C@@H]3CC[C@H]4C[C@H](O)CC[C@]4(C)[C@H]3CC[C@]12C have nHill under 1? true (1)

Where do the numbers come from? From ChEMBL document CHEMBL1145917.
